conditions: in acetone, 303.15 K
READOUT LABEL: solubility (mole fraction)

Data request: If you can, please state the reported solubility (mole fraction) value of `CC(C)[C@H](C)[C@@H](O)[C@H](O)[C@@H](C)[C@H]1CC[C@H]2[C@@H]3COC(=O)[C@H]4C[C@H](O)[C@H](O)C[C@]4(C)[C@H]3CC[C@]12C` .
Data returned: 0.188

* * *

conditions: in THF, 278.15 K
READOUT LABEL: solubility (mole fraction)
Give bare numbers.

Data request: If you can, please state the reported solubility (mole fraction) value of `CC(C)[C@H](C)[C@@H](O)[C@H](O)[C@@H](C)[C@H]1CC[C@H]2[C@@H]3COC(=O)[C@H]4C[C@H](O)[C@H](O)C[C@]4(C)[C@H]3CC[C@]12C` .
Data returned: 0.16

* * *

conditions: in n-heptane, 323.15 K
READOUT LABEL: solubility (mole fraction)

Data request: If you can, please state the reported solubility (mole fraction) value of `CC(C)[C@H](C)[C@@H](O)[C@H](O)[C@@H](C)[C@H]1CC[C@H]2[C@@H]3COC(=O)[C@H]4C[C@H](O)[C@H](O)C[C@]4(C)[C@H]3CC[C@]12C` .
Data returned: 0.00052

* * *

details: in n-butanol, 298.15 K
READOUT LABEL: solubility (mole fraction)
Give bare numbers.

Data request: If you can, please state the reported solubility (mole fraction) value of `CC(C)[C@H](C)[C@@H](O)[C@H](O)[C@@H](C)[C@H]1CC[C@H]2[C@@H]3COC(=O)[C@H]4C[C@H](O)[C@H](O)C[C@]4(C)[C@H]3CC[C@]12C` .
Data returned: 0.00082

* * *

conditions: in n-hexane, 303.15 K
READOUT LABEL: solubility (mole fraction)
One number for each entry.

Data request: If you can, please state the reported solubility (mole fraction) value of `CC(C)[C@H](C)[C@@H](O)[C@H](O)[C@@H](C)[C@H]1CC[C@H]2[C@@H]3COC(=O)[C@H]4C[C@H](O)[C@H](O)C[C@]4(C)[C@H]3CC[C@]12C` .
Data returned: 0.00031

* * *

conditions: in n-heptane, 278.15 K
READOUT LABEL: solubility (mole fraction)
Answers are plain numbers.

Data request: If you can, please state the reported solubility (mole fraction) value of `CC(C)[C@H](C)[C@@H](O)[C@H](O)[C@@H](C)[C@H]1CC[C@H]2[C@@H]3COC(=O)[C@H]4C[C@H](O)[C@H](O)C[C@]4(C)[C@H]3CC[C@]12C` .
Data returned: 7e-05

* * *

conditions: in acetonitrile, 283.15 K
READOUT LABEL: solubility (mole fraction)

Data request: If you can, please state the reported solubility (mole fraction) value of `CC(C)[C@H](C)[C@@H](O)[C@H](O)[C@@H](C)[C@H]1CC[C@H]2[C@@H]3COC(=O)[C@H]4C[C@H](O)[C@H](O)C[C@]4(C)[C@H]3CC[C@]12C` .
Data returned: 0.00067

* * *

conditions: in n-butanol, 313.15 K
READOUT LABEL: solubility (mole fraction)
Numbers only.

Data request: If you can, please state the reported solubility (mole fraction) value of `CC(C)[C@H](C)[C@@H](O)[C@H](O)[C@@H](C)[C@H]1CC[C@H]2[C@@H]3COC(=O)[C@H]4C[C@H](O)[C@H](O)C[C@]4(C)[C@H]3CC[C@]12C` .
Data returned: 0.00121

* * *

conditions: in n-heptane, 303.15 K
READOUT LABEL: solubility (mole fraction)
Numbers only.

Data request: If you can, please state the reported solubility (mole fraction) value of `CC(C)[C@H](C)[C@@H](O)[C@H](O)[C@@H](C)[C@H]1CC[C@H]2[C@@H]3COC(=O)[C@H]4C[C@H](O)[C@H](O)C[C@]4(C)[C@H]3CC[C@]12C` .
Data returned: 0.00028

* * *

conditions: in acetone, 298.15 K
READOUT LABEL: solubility (mole fraction)
Answers are plain numbers.

Data request: If you can, please state the reported solubility (mole fraction) value of `CC(C)[C@H](C)[C@@H](O)[C@H](O)[C@@H](C)[C@H]1CC[C@H]2[C@@H]3COC(=O)[C@H]4C[C@H](O)[C@H](O)C[C@]4(C)[C@H]3CC[C@]12C` .
Data returned: 0.166

* * *

conditions: in n-heptane, 298.15 K
READOUT LABEL: solubility (mole fraction)
Give bare numbers.

Data request: If you can, please state the reported solubility (mole fraction) value of `CC(C)[C@H](C)[C@@H](O)[C@H](O)[C@@H](C)[C@H]1CC[C@H]2[C@@H]3COC(=O)[C@H]4C[C@H](O)[C@H](O)C[C@]4(C)[C@H]3CC[C@]12C` .
Data returned: 0.00022

* * *

conditions: in chloroform, 313.15 K
READOUT LABEL: solubility (mole fraction)
Answers are plain numbers.

Data request: If you can, please state the reported solubility (mole fraction) value of `CC(C)[C@H](C)[C@@H](O)[C@H](O)[C@@H](C)[C@H]1CC[C@H]2[C@@H]3COC(=O)[C@H]4C[C@H](O)[C@H](O)C[C@]4(C)[C@H]3CC[C@]12C` .
Data returned: 0.00204

* * *

details: in chloroform, 318.15 K
READOUT LABEL: solubility (mole fraction)
Answers are plain numbers.

Data request: If you can, please state the reported solubility (mole fraction) value of `CC(C)[C@H](C)[C@@H](O)[C@H](O)[C@@H](C)[C@H]1CC[C@H]2[C@@H]3COC(=O)[C@H]4C[C@H](O)[C@H](O)C[C@]4(C)[C@H]3CC[C@]12C` .
Data returned: 0.00229

* * *

settings: in n-heptane, 288.15 K
READOUT LABEL: solubility (mole fraction)
One number for each entry.

Data request: If you can, please state the reported solubility (mole fraction) value of `CC(C)[C@H](C)[C@@H](O)[C@H](O)[C@@H](C)[C@H]1CC[C@H]2[C@@H]3COC(=O)[C@H]4C[C@H](O)[C@H](O)C[C@]4(C)[C@H]3CC[C@]12C` .
Data returned: 0.00014

* * *

conditions: in methanol, 288.15 K
READOUT LABEL: solubility (mole fraction)
Answers are plain numbers.

Data request: If you can, please state the reported solubility (mole fraction) value of `CC(C)[C@H](C)[C@@H](O)[C@H](O)[C@@H](C)[C@H]1CC[C@H]2[C@@H]3COC(=O)[C@H]4C[C@H](O)[C@H](O)C[C@]4(C)[C@H]3CC[C@]12C` .
Data returned: 0.0442

* * *

details: in chloroform, 323.15 K
READOUT LABEL: solubility (mole fraction)
One number for each entry.

Data request: If you can, please state the reported solubility (mole fraction) value of `CC(C)[C@H](C)[C@@H](O)[C@H](O)[C@@H](C)[C@H]1CC[C@H]2[C@@H]3COC(=O)[C@H]4C[C@H](O)[C@H](O)C[C@]4(C)[C@H]3CC[C@]12C` .
Data returned: 0.00256

* * *

details: in methanol, 313.15 K
READOUT LABEL: solubility (mole fraction)
Give bare numbers.

Data request: If you can, please state the reported solubility (mole fraction) value of `CC(C)[C@H](C)[C@@H](O)[C@H](O)[C@@H](C)[C@H]1CC[C@H]2[C@@H]3COC(=O)[C@H]4C[C@H](O)[C@H](O)C[C@]4(C)[C@H]3CC[C@]12C` .
Data returned: 0.0875

* * *

details: in isopropanol, 283.15 K
READOUT LABEL: solubility (mole fraction)
Give bare numbers.

Data request: If you can, please state the reported solubility (mole fraction) value of `CC(C)[C@H](C)[C@@H](O)[C@H](O)[C@@H](C)[C@H]1CC[C@H]2[C@@H]3COC(=O)[C@H]4C[C@H](O)[C@H](O)C[C@]4(C)[C@H]3CC[C@]12C` .
Data returned: 0.00036

* * *

details: in acetone, 278.15 K
READOUT LABEL: solubility (mole fraction)
One number for each entry.

Data request: If you can, please state the reported solubility (mole fraction) value of `CC(C)[C@H](C)[C@@H](O)[C@H](O)[C@@H](C)[C@H]1CC[C@H]2[C@@H]3COC(=O)[C@H]4C[C@H](O)[C@H](O)C[C@]4(C)[C@H]3CC[C@]12C` .
Data returned: 0.09

These entries and their values trace back to BigSolDB 2.1.
